Source listed as PubChem BioAssay (NCI).

System: EKVX NSCLC
Experiment: NCI-60 one-dose screen, 48 h (100 = growth as untreated, 0 = no growth, -100 = all killed)
Conditions: 10 µM unless noted
This is part of a sample that, as a whole, favours compounds with a hit. Of some 83,000 tested, about 20% had one in any assay.
parameter: growth (%)
Answer with a number only, understood to be in %.

Inquiry: Provide measured growth value, entry: S=c1[nH]nc(Cn2c3ccccc3c3ccncc32)o1
Reply text: 106

Inquiry: Supply reported growth belonging to this compound: COc1ccc(/C(=C/c2cc(OC)c(OC)c(OC)c2)[N+](=O)[O-])cc1
Reply text: 27.9

Inquiry: Please look at this compound and report its growth: CCN1CCN(Cc2ccc(NC(=O)Nc3cccc(-n4ccc5c(NC(=O)c6ccccc6)nccc54)c3)cc2C(F)(F)F)CC1
Reply text: 89.8

Inquiry: State its growth: CCCN1C(=O)CSC1=Nc1ccc2cc3ccc(N=C4SCC(=O)N4CCC)cc3nc2c1
Reply text: 33.8

Inquiry: Quote growth reported for CCc1cccc(-c2ccccc2)c1 please.
Reply text: 102

----------
Test system: A498 renal
Experiment: NCI-60 one-dose screen, 48 h (100 = growth as untreated, 0 = no growth, -100 = all killed)
Conditions: 10 µM unless noted
Description: Growth inhibition of the A498 human tumor cell line is measured as a screen for anti-cancer activity. Cells are grown in 96 well plates and exposed to the test compound for 48 hours. Compounds are tested at a single concentration, which is 10^-5 M for most compounds. The reported endpoint is percent growth (GI% or GIPRCNT), where numbers from 0 - 100% represent growth inhibition, and numbers from -100% - 0 represent cell death. For example, a value of 40 represents 60% growth inhibition. […]
About 83,000 compounds went through this panel and 20% of them were active in at least one assay; those are over-represented in the sample as a whole.
Binarize growth at 90%; below is satisfied, at or above is not satisfied.

Inquiry: Bench note: check whether CSc1nc(N)nc2c1ncn2C shows growth below 90%
Reply text: not satisfied

Inquiry: Please let me know if O=C(N/N=C/c1ccccc1O)c1ccccc1O shows growth below 90%.
Reply text: not satisfied

Inquiry: In the record for COc1cc(CN(c2ccc(Cl)cc2)C2OC(=O)c3ccccc32)cc(OC)c1OC (configuration not stated) , is growth less than 90%?
Reply text: satisfied

Inquiry: Input CN(C)CCCOc1c(Br)cc(/C=C/C(=O)N(C)CCc2cc(Br)c(OCCCN(C)C)c(Br)c2)cc1Br ; condition: growth strictly below 90%. Does it hold?
Reply text: satisfied

Inquiry: Quick check: growth of Cc1ncc(CO)c(C(=O)O)c1O under 90%?
Reply text: not satisfied

Inquiry: Is growth strictly under 90% for the entry CCOC(=O)n1cnc2c(Cl)ncnc21 ?
Reply text: satisfied

Inquiry: Please check: growth for O=C(O)c1ccc(-n2cc(/C=N/Nc3ccc(Cl)cc3)c(-c3ccc(F)c(F)c3)n2)cc1 , strictly under 90% or not?
Reply text: satisfied

Inquiry: Here's an entry: CCCC(=O)Oc1ccc(/C(=C(\C)c2ccc(Cl)cc2)c2ccc(OCCN(CC)CC)cc2)cc1 . Is its growth below 90%?
Reply text: satisfied

Inquiry: Threshold test, growth < 90%: O=S(=O)(CCN1CCOCC1)Nc1cncc(-c2ccc3ncnc(Nc4ccc(F)c(Cl)c4)c3c2)c1
Reply text: satisfied

Inquiry: Lab note: confirm whether the reported growth for this compound is below 90%, equality not counting. compound: Cc1ccc(=O)n(-c2ccc(Br)cc2F)c1
Reply text: satisfied

Inquiry: Bench note: check whether Cc1c(NC(=O)c2sc3nc4c(cc3c2N)CN(Cc2ccccc2)CC4)cccc1C(F)(F)F shows growth below 90%
Reply text: satisfied

Inquiry: Given COC(=O)Nc1nc2ccc(Sc3ccccc3)cc2[nH]1 , is recorded growth strictly lower than 90%?
Reply text: satisfied

Inquiry: # TODO verify growth < 90% strictly for this compound: CC1CCC(C(C)C)C(NN)C1 (configuration not stated)
Reply text: not satisfied

Inquiry: Criterion: growth strictly below 90%. Is it met by CCCCOc1c(N)cc(Cl)cc1C(=O)OCCN(CC)CC ?
Reply text: satisfied

Inquiry: Please let me know if CC(C)(C)C(=O)Nc1nc2c(s1)CCc1ccn(S(=O)(=O)c3ccccc3)c1-2 shows growth below 90%.
Reply text: not satisfied

Inquiry: # strict comparison: is reported growth < 90%? input = CC(NCCC(c1ccccc1)c1ccccc1)c1ccccc1 (configuration not stated)
Reply text: satisfied

Inquiry: Input CC(=O)c1ccc2c(c1)C1C=CCC1[C@H](c1cc3c(cc1Br)OCO3)N2 (some centres not stated) ; condition: growth strictly below 90%. Does it hold?
Reply text: satisfied

Inquiry: Identify whether the compound CC1(C)N=C(N)N=C(N)N1c1ccc(OCC(=O)Nc2ccccc2)c(Cl)c1 records growth below 90%.
Reply text: not satisfied

Inquiry: Say whether its growth is strictly beneath 90%. Entry: COc1ccc2c(c1)C(=O)/C(=C/c1cccc(OCC(=O)c3ccccc3)c1)O2
Reply text: not satisfied

Inquiry: Regarding COc1cc2c(/C=C3/C(=O)Nc4ccc(O)cc43)c(Cl)n(Cc3cc(OC)c(OC)c(OC)c3)c2cc1C , kindly confirm whether its growth is beneath 90%.
Reply text: satisfied

Inquiry: Take the compound CN1CCN(CC(=O)N(C)c2ccc(N=C(c3ccccc3)c3c(O)[nH]c4ccc(C#N)cc34)cc2)CC1 and say whether its growth is less than 90%.
Reply text: satisfied

----------
Test system: UACC-257 melanoma
Experiment: NCI-60 one-dose screen, 48 h (100 = growth as untreated, 0 = no growth, -100 = all killed)
Settings: 10 µM unless noted
Compounds without any hit were thinned out: in the full panel of roughly 83,000, 20% have a hit. Active and inactive are the calls of the source. Rule for the calls: active = growth percent below 10; inactive = the rest.
parameter: growth

Inquiry: Please report growth for the following compound: Cc1ccn2cc(Cc3cc(=O)oc4c3ccc3ccccc34)c(=O)nc2c1
Reply text: 86.3% (inactive)

Inquiry: Quick one: give measured growth for COc1ccc(CCNC=O)cc1OC
Reply text: 108% (inactive)

Inquiry: Find the measured growth of CN1CCN(CC(=O)N(C)c2ccc(N=C(c3ccccc3)c3c(O)[nH]c4ccc(C#N)cc34)cc2)CC1 and report it.
Reply text: 78.5% (inactive)

Inquiry: Give the measured growth for C=CCOc1ccc(/C(Cl)=N/N=C(\Cl)c2cc(OC)c(OC)c(OC)c2)cc1
Reply text: 53.3% (inactive)

Inquiry: Answer with the recorded growth of COc1ccc2c(c1)nnc1c3cccnc3[nH]c21 only.
Reply text: 33.5% (inactive)

Inquiry: Report growth, nothing else, for this compound: CN[C@@H](CCCNC(N)=NC/C=C(/C)CCC=C(C)C)C(=O)N(C)[C@@H](CCCNC(N)=NCC=C(C)C)C(=O)N[C@H](C)[C@H](OS(=O)(=O)O)c1ccc(OS(=O)(=O)O)c(COS(=O)(=O)O)c1
Reply text: 92.5% (inactive)

Inquiry: Identify measured growth associated with COc1ccc(-c2ccc(NC(=O)Nc3ccc(Cl)c(C(F)(F)F)c3)c(C)n2)cc1
Reply text: 57.1% (inactive)

Inquiry: Assign growth to the following record: C=C1C(=O)O[C@H]2[C@H]1CC/C(COC(=O)c1ccc3ccccc3c1)=C\CC[C@@]1(C)O[C@@H]21
Reply text: -24.6% (active)

Inquiry: Supply recorded growth for O=C1COc2ccccc2C(=O)N1CCCCN1CCCCC1 here.
Reply text: 102% (inactive)

Inquiry: Read off the recorded growth for O=C(NOC1OC(CO)C(O)C(O)C1O)Nc1ccccc1 (centres undefined)
Reply text: 107% (inactive)

Inquiry: Report growth for COc1cc(NC(=O)c2cc(OC)c3ccn(C)c3c2)cc2c1C[C@]1(C)CC[C@@H](O)C(C)(C)[C@H]1O2
Reply text: 62.2% (inactive)

Inquiry: For the compound Nc1ccc(S(=O)(=O)Nc2cc(I)cc(I)c2)cc1 , give its reported growth.
Reply text: 99.7% (inactive)

Inquiry: Answer with the recorded growth of CCCN1C(=O)CSC1=Nc1ccc2cc3ccc(N=C4SCC(=O)N4CCC)cc3nc2c1 only.
Reply text: 43.9% (inactive)

Inquiry: Please report the measured growth for O=C(NCCNc1nccc(-c2c(-c3cccc(O)c3)nc3sccn23)n1)c1ccc(N2CCOCC2)c(C(F)(F)F)c1
Reply text: 15.8% (inactive)

----------
Test system: K-562 leukemia
Test: NCI-60 one-dose screen, 48 h (100 = growth as untreated, 0 = no growth, -100 = all killed)
Conditions: 10 µM unless noted
About 83,000 compounds went through this panel and 20% of them were active in at least one assay; those are over-represented in the sample as a whole.
Lab note: cut-off is 10%. Strictly less in growth is Condition met. Exactly 10% or more is Condition not met.

Inquiry: Threshold test, growth < 10%: COc1cc2c(cc1OCCCCC(=O)Nc1ccc(-c3nc4ccccc4s3)cc1)N=C[C@@H]1CCCN1C2=O
Reply text: Condition met

Inquiry: Lab note: growth threshold 10%. Does this compound come in strictly under it? Cc1ccc(-c2nc3c(N=Nc4ccc(S(N)(=O)=O)cc4)c(N)nn3c(N)c2C#N)cc1
Reply text: Condition not met

Inquiry: Input c1ccc(CNCCN(CCNCc2ccccn2)Cc2ccc3ccccc3c2)nc1 ; condition: growth strictly below 10%. Does it hold?
Reply text: Condition met

Inquiry: # strict comparison: is reported growth < 10%? input = Cc1nc(N)nc(SCc2ccccc2)c1Br
Reply text: Condition not met

Inquiry: Hello, I'm reviewing records and need to know if growth of COc1cc(/C=C/C(=O)c2ccc(Oc3ncnc4ccccc34)cc2)cc(OC)c1OC is below 10%. Could you check?
Reply text: Condition not met

Inquiry: Dear colleague, could you confirm whether growth of COc1ccc(C(=O)NC(=O)Nc2ccc3c(c2)NC(=O)/C3=C\c2[nH]c(C)c(CCC(=O)O)c2C)c(F)c1 falls below 10%? Thanks.
Reply text: Condition not met

Inquiry: Quick check: growth of O=C1c2ccccc2OC=C(c2ccccc2)N1CCCCNc1ccc(F)cc1 under 10%?
Reply text: Condition not met

Inquiry: Confirm or reject: growth of CC1OC(n2c3ccccc3c3c4c(c5c6ccccc6[nH]c5c32)C(=O)N(CCN[C@@H]2CCC[C@H]2N)C4=O)CC(O)C1O (some centres undefined) lies strictly below 10%
Reply text: Condition met

Inquiry: Answer whether the compound O=C(NC(=S)Nc1ccc(Cl)cc1)c1ccccc1 has growth strictly less than 10%
Reply text: Condition not met
